// data source = patent US20240270762A1

Test system: B. thailandensis ATCC 700388
Assay: microbe, parasite or virus in culture
Type: cell-based
Conditions: Burkholderia thailandensis, ATCC700388, read-out: Minimum inhibitory concentration (MIC), B. thailandensis ATCC 700388
Kindly state MIC for each of the entries shown.

Solved entries (count: 2):
Compound: O=C(NCCCN1CCN(C(=O)NC(C(=O)N[C@H]2Cc3ccc(F)c(C(=O)O)c3OB2O)c2cc(F)c(O)c(O)c2Cl)C(=O)C1=O)c1ccc(O)c(Cl)c1F (some centres unmarked)
MIC: 2 to 4 µg/mL

Compound: O=C(NCCS(=O)(=O)N1CCN(C(=O)N[C@@H](C(=O)N[C@H]2Cc3ccc(F)c(C(=O)O)c3OB2O)c2cc(F)c(O)c(O)c2Cl)C1=O)Nc1cccnc1
MIC: 2 to 4 µg/mL

Provide MIC values for the following items, in order.
1. O=C(NCCCN1CCN(C(=O)NC(C(=O)N[C@H]2Cc3ccc(F)c(C(=O)O)c3OB2O)c2cc(F)c(O)c(O)c2Cl)C(=O)C1=O)c1ccc(O)c(F)c1Cl (some centres unmarked)
2. O=C(O)c1c(F)ccc2c1OB(O)[C@@H](NC(=O)[C@H](NC(=O)N1CCN(C3CCN(C(=O)c4cc(O)c(F)c(O)c4F)CC3)C1=O)c1cc(F)c(O)c(O)c1Cl)C2 (single isomer, unassigned)
3. O=C(O)c1c(F)ccc2c1OB(O)[C@@H](NC(=O)C(NC(=O)N1CCN(C3CCN(S(=O)(=O)c4ccc(O)cc4)CC3)C(=O)C1=O)c1cc(F)c(O)c(O)c1Cl)C2 (some centres unmarked)
4. O=C(NCCS(=O)(=O)N1CCN(C(=O)N[C@@H](C(=O)N[C@H]2Cc3ccc(F)c(C(=O)O)c3OB2O)c2cc(F)c(O)c(O)c2Cl)C1=O)c1nccs1
5. O=C(NCCCN1CCN(C(=O)NC(C(=O)N[C@H]2Cc3ccc(F)c(C(=O)O)c3OB2O)c2cc(F)c(O)c(O)c2Cl)C(=O)C1=O)c1cccc(O)c1F (some centres unmarked)
6. O=C(NCCCN1CCN(C(=O)NC(C(=O)N[C@H]2Cc3ccc(F)c(C(=O)O)c3OB2O)c2cc(F)c(O)c(O)c2Cl)C1=O)c1ccc(O)cc1 (some centres unmarked)

Out:
1. < 1 µg/mL
2. < 1 µg/mL
3. 8 to 16 µg/mL
4. < 1 µg/mL
5. 2 to 4 µg/mL
6. 2 to 4 µg/mL

Provide MIC values for the following items, in order.
1. O=C(NCCCN1CCN(C(=O)NC(C(=O)N[C@H]2Cc3ccc(F)c(C(=O)O)c3OB2O)c2cc(F)c(O)c(O)c2Cl)C(=O)C1=O)c1ccnc(F)c1 (some centres unmarked)
2. CN(CCN1CCN(C(=O)N[C@@H](C(=O)N[C@H]2Cc3ccc(F)c(C(=O)O)c3OB2O)c2cc(F)c(O)c(O)c2Cl)C(=O)C1=O)Cc1cccc(C(N)=O)c1
3. O=C(NCCN1CCN(C(=O)NC(C(=O)N[C@H]2Cc3ccc(F)c(C(=O)O)c3OB2O)c2cc(F)c(O)c(O)c2Cl)C(=O)C1=O)c1ccncc1 (some centres unmarked)

Out:
1: 2 to 4 µg/mL; 2: < 1 µg/mL; 3: 2 to 4 µg/mL

----------
Target: A. baumannii PBP1a (Acinetobacter baumannii)
Sequence (A0ABX6CK30 1-851): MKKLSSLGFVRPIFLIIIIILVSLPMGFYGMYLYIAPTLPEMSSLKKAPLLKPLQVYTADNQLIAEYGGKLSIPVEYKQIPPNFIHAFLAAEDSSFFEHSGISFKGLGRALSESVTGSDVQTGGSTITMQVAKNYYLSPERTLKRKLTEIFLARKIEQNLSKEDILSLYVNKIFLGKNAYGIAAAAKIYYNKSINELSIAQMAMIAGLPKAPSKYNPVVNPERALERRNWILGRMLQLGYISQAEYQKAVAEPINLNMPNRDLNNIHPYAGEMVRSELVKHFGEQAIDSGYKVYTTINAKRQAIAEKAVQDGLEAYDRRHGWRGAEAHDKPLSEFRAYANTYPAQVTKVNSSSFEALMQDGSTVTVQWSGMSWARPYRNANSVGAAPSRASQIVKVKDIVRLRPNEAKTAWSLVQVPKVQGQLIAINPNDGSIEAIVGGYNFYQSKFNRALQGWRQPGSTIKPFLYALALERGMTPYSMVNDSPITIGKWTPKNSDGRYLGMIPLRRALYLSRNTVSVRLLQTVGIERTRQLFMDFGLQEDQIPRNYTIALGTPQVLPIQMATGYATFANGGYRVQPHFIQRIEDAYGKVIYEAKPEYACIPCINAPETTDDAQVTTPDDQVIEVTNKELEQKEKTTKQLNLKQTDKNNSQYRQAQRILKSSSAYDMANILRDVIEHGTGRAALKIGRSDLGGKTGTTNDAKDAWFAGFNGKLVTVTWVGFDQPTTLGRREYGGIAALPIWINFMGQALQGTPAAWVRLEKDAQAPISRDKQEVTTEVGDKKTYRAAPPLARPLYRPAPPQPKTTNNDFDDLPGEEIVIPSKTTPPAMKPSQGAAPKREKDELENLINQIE
Assay: Bocillin-FL competition binding via gel filtration, A. baumannii PBP1a
Details: competition binding assay using Bocillin-FL via gel filtration; read-out: A. baumannii PBP1a Potency
Procedure: Affinity to A. baumannii PBP1a and PBP2 was assessed a competitive equilibrium binding assay using Bocillin-FL as the reporter molecule. Enzyme was pre-incubated with increasing concentrations of inhibitors, prior to addition of Bocillin and further incubation for 15 minutes. PBP bound with Bocillin-FL was separated by gel filtration using 96-well Zeba Spin size exclusion plates, and the fluorescence measured. […]
Readout name: EC50

Solved entries (count: 2):
Molecule: O=C(O)c1cccc2c1OB(O)[C@@H](NC(=O)C(NC(=O)N1CCN(Cc3ccc(O)c(O)c3Cl)C(=O)C1=O)c1ccc(P(=O)(O)O)cc1)C2 (some centres unmarked) [Example 24]
Assay value: 10 to 50 µM
//
Molecule: O=C(O)c1c(F)ccc2c1OB(O)[C@@H](NC(=O)[C@H](NC(=O)N1CCN(C3CCN(C(=O)Nc4cccc(O)c4F)CC3)C1=O)c1cc(F)c(O)c(O)c1Cl)C2 (single isomer, unassigned) [Example 446]
Assay value: 10 to 50 µM

Provide EC50 values for the following items, in order.
1. O=C(O)c1c(F)ccc2c1OB(O)[C@@H](NC(=O)[C@H](NC(=O)N1CCN(C3CCN(C(=O)c4ccc(O)cc4)CC3)C1=O)c1cc(F)c(O)c(O)c1Cl)C2 (single isomer, unassigned) [Example 463]
2. O=C(O)c1c(F)ccc2c1OB(O)[C@@H](NC(=O)[C@H](NC(=O)N1CCN(C3CCN(C(=O)c4cccc(O)c4Cl)CC3)C1=O)c1cc(F)c(O)c(O)c1Cl)C2 (single isomer, unassigned) [Example 432]
3. O=C(NCCCN1CCN(C(=O)NC(C(=O)N[C@H]2Cc3ccc(F)c(C(=O)O)c3OB2O)c2cc(F)c(O)c(O)c2Cl)C(=O)C1=O)c1ccncc1F (some centres unmarked) [Example 400]
4. O=C(O)c1cccc2c1OB(O)[C@@H](NC(=O)[C@H](NC(=O)N1CCN(Cc3cc(F)c(O)c(O)c3Cl)C(=O)C1=O)c1ccc(P(=O)(O)O)cc1)C2 [Example 504]

Out:
1. < 10 µM
2. < 10 µM
3. 10 to 50 µM
4. < 10 µM

Provide EC50 values for the following items, in order.
1. O=C(NCCCN1CCN(C(=O)NC(C(=O)N[C@H]2Cc3ccc(F)c(C(=O)O)c3OB2O)c2cc(F)c(O)c(O)c2Cl)C(=O)C1=O)c1cc(O)c(F)c(O)c1 (some centres unmarked) [Example 416]
2. O=C(O)c1c(F)ccc2c1OB(O)[C@@H](NC(=O)C(NC(=O)N1CCN(C3CCN(C(=O)Nc4cccc(O)c4)CC3)C(=O)C1=O)c1cc(F)c(O)c(O)c1Cl)C2 (some centres unmarked) [Example 424]
3. O=C(O)c1c(F)ccc2c1OB(O)[C@@H](NC(=O)[C@H](NC(=O)N1CCN(C3CCN(Cc4ccncn4)CC3)C1=O)c1cc(F)c(O)c(O)c1Cl)C2 [Example 602]
4. O=C(O)c1c(F)ccc2c1OB(O)[C@@H](NC(=O)C(NC(=O)N1CCN(C3CCN(C(=O)Nc4ccc(F)c(O)c4)CC3)C(=O)C1=O)c1cc(F)c(O)c(O)c1Cl)C2 (some centres unmarked) [Example 480]

Out:
1: < 10 µM; 2: < 10 µM; 3: < 10 µM; 4: < 10 µM
